biological target: D(3) dopamine receptor (Homo sapiens); assay: Agonist activity at human dopamine D3 receptor expressed in CHOK1 cells assessed as cAMP levels preincubated for 10 mins followed by addition of adenylyl cyclase activator NKH 477 measured after 45 mins by HTRF functional assay relative to dopamine; assay type: cell-based; settings: CHO-K1
Classification by Efficacy follows these ranges: Low = under 30%, Mid = from 30% up to 60%, High = 60% and over

- Compound: "O=C(NCCCN1CCN(c2ccccc2C(F)(F)F)CC1)Oc1cccc2ccccc12"
  Subject of test: "D(3) dopamine receptor (Homo sapiens)"
  Group label: "Mid"
- Compound: "Cc1ccccc1N1CCN(CCCNC(=O)Oc2cccc3ccccc23)CC1.Cl"
  Subject of test: "D(3) dopamine receptor (Homo sapiens)"
  Group label: "Low"
- Compound: "COc1ccc(OC(=O)NCCCCN2CCN(c3cccc(Cl)c3Cl)CC2)c2ccccc12.Cl"
  Subject of test: "D(3) dopamine receptor (Homo sapiens)"
  Group label: "Mid"
- Compound: "COc1ccccc1N1CCN(CCCNC(=O)Oc2cccc3ccccc23)CC1"
  Subject of test: "D(3) dopamine receptor (Homo sapiens)"
  Group label: "Low"
- Compound: "O=C(NCCCN1CCN(c2cccc(Cl)c2Cl)CC1)Oc1cccc2ccccc12"
  Subject of test: "D(3) dopamine receptor (Homo sapiens)"
  Group label: "Mid"

Class (by measured Efficacy) for Cl.O=C(NCCCCN1CCN(c2cccc(Cl)c2Cl)CC1)Oc1ccc(O)c2ccccc12
High

Class (by measured Efficacy) for Cl.O=C(NCCCCN1CCN(c2cccc(Cl)c2Cl)CC1)Oc1cccc2c1OCCO2
Mid

###

target: D(2) dopamine receptor (Homo sapiens); assay: Agonist activity at human dopamine D2 receptor short isoform transfected in HEK293 cells measured for 10 mins by spectroscopic analysis
Sequence (P14416 whole entry, canonical isoform): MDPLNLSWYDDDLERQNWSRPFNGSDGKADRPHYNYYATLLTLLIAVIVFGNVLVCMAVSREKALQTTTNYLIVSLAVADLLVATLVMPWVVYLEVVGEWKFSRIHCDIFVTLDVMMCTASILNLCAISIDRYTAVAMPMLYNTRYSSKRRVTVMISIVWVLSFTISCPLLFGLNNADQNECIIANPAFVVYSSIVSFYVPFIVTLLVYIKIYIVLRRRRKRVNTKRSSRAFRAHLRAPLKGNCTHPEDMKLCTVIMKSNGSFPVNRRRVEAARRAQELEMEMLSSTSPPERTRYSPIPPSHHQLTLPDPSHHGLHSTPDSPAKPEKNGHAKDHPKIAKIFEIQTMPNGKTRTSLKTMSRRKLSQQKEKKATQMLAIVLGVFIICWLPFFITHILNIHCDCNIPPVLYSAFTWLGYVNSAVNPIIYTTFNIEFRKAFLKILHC
Measure name: pEC50
Field pEC50 (float): negative decimal logarithm of the concentration in molar.

- Item smiles: "Cl.O=C(NCCCCN1CCN(c2cccc(Cl)c2Cl)CC1)Oc1cccc2c1OCCO2"
  pEC50: 5.46
- Item smiles: "Cl.O=C(NCCCCN1CCN(c2cccc(Cl)c2Cl)CC1)Oc1cccc2[nH]cnc12"
  pEC50: 5.00
- Item smiles: "COc1ccccc1N1CCN(CCCNC(=O)Oc2cccc3ccccc23)CC1"
  pEC50: 5.39
- Item smiles: "Cl.NC(=O)c1ccc(OC(=O)NCCCCN2CCN(c3cccc(Cl)c3Cl)CC2)c2ccccc12"
  pEC50: 5.59

# context switch: different compound, same pEC50
Return pEC50 (reported value) for this compound: Cc1ccccc1N1CCN(CCCNC(=O)Oc2cccc3ccccc23)CC1.Cl
4.85

###

assay: Half life in rat liver microsomes at 4.6 uM preincubated for 15 mins followed by NADPH addition measured after 1 hr by LC/MS-MS analysis; assay type: ADME
Measure name: half-life at 4.6 µM
Include the unit right after the number.

Return half-life at 4.6 µM (reported value) for this compound: O=C(NCCCCN1CCN(c2cccc(Cl)c2Cl)CC1)Oc1cccc2ccccc12
45 min

###

Quick reference: solubility kinetic at 24 h of the listed items.
experiment: Aqueous kinetic solubility of the compound in PBS at pH 7.4 at 37 degC after 24 hrs by UPLC/MS method; assay type: physicochemical; details: read-out: Kinetic_solubility
Write the number in µM without appending the unit.

- Item smiles: "O=C(NCCCCN1CCN(c2cccc(Cl)c2Cl)CC1)Oc1cccc2[nH]ccc12"
  Measurement units: "µM"
  solubility kinetic at 24 h: 11
- Item smiles: "Cl.O=C(NCCCCN1CCN(c2ccccc2C(F)(F)F)CC1)Oc1cccc2ccccc12"
  Measurement units: "µM"
  solubility kinetic at 24 h: 2
- Item smiles: "Cl.NC(=O)c1ccc(OC(=O)NCCCCN2CCN(c3cccc(Cl)c3Cl)CC2)c2ccccc12"
  Measurement units: "µM"
  solubility kinetic at 24 h: 25
- Item smiles: "COc1ccccc1N1CCN(CCCNC(=O)Oc2cccc3ccccc23)CC1"
  Measurement units: "µM"
  solubility kinetic at 24 h: 69
- Item smiles: "Cl.O=C(NCCCCN1CCN(c2cccc(Cl)c2Cl)CC1)Oc1cccc2c1OCCO2"
  Measurement units: "µM"
  solubility kinetic at 24 h: 9
- Item smiles: "O=C(NCCCCN1CCN(c2cccc(Cl)c2Cl)CC1)Oc1ccccc1"
  Measurement units: "µM"
  solubility kinetic at 24 h: 17
- Item smiles: "Cc1ccccc1N1CCN(CCCNC(=O)Oc2cccc3ccccc23)CC1.Cl"
  Measurement units: "µM"
  solubility kinetic at 24 h: 20
- Item smiles: "COc1ccccc1N1CCN(CCCCNC(=O)Oc2cccc3ccccc23)CC1"
  Measurement units: "µM"
  solubility kinetic at 24 h: 38

Return solubility kinetic at 24 h (reported value) for this compound: O=C(NCCCN1CCN(c2ccccc2C(F)(F)F)CC1)Oc1cccc2ccccc12
1

Return solubility kinetic at 24 h (reported value) for this compound: Cc1ccccc1N1CCN(CCCCNC(=O)Oc2cccc3ccccc23)CC1.Cl
22

Return solubility kinetic at 24 h (reported value) for this compound: Cl.O=C(NCCCCN1CCN(c2cccc(Cl)c2Cl)CC1)Oc1cccc2[nH]cnc12
100

Return solubility kinetic at 24 h (reported value) for this compound: Cl.O=C(NCCCCN1CCN(c2cccc(Cl)c2Cl)CC1)Oc1ccc(O)c2ccccc12
3

Return solubility kinetic at 24 h (reported value) for this compound: Cl.O=C(NCCCCN1CCN(c2cccc(Cl)c2Cl)CC1)Oc1ccc(C(=O)O)c2ccccc12
178

###

biological target: D(3) dopamine receptor (Homo sapiens, UniProt P35462); assay: Agonist activity at human dopamine D3 receptor expressed in CHOK1 cells assessed as cAMP levels preincubated for 10 mins followed by addition of adenylyl cyclase activator NKH 477 measured after 45 mins by HTRF functional assay
Sequence (P35462 whole entry): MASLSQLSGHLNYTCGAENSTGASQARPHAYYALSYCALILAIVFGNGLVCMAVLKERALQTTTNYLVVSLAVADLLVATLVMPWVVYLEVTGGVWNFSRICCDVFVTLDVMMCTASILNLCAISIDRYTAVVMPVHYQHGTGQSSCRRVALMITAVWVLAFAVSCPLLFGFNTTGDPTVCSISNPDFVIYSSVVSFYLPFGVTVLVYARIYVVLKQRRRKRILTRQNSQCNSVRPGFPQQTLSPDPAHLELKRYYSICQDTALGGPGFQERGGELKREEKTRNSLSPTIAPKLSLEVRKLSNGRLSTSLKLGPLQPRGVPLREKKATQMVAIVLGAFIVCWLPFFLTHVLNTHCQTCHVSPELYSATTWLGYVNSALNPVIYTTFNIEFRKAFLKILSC
Measure name: EC50 (nM)
Write the number in nM without appending the unit.

- Item smiles: "O=C(NCCCCN1CCN(c2cccc(Cl)c2Cl)CC1)Oc1cccc2c1CCCC2"
  Measurement units: "nM"
  Readout number: 76.5
- Item smiles: "COc1ccc(OC(=O)NCCCCN2CCN(c3cccc(Cl)c3Cl)CC2)c2ccccc12.Cl"
  Measurement units: "nM"
  Readout number: 25.4

# context switch: different compound, same EC50
Return EC50 (reported value) for this compound: Cl.O=C(NCCCCN1CCN(c2cccc(Cl)c2Cl)CC1)Oc1cccc2c1OCCO2
14.1

###

biological target: D(3) dopamine receptor (Homo sapiens, UniProt P35462); experiment: Agonist activity at human dopamine D3 receptor expressed in CHOK1 cells assessed as cAMP levels preincubated for 10 mins followed by addition of adenylyl cyclase activator NKH 477 measured after 45 mins by HTRF functional assay
EC50 under 8 nM gets Criterion met, anything at or over 8 nM gets Criterion not met.

A selection of reference data follows.
- Compound: "Cl.O=C(NCCCCN1CCN(c2cccc(Cl)c2Cl)CC1)Oc1cccc2[nH]cnc12"
  Group label: "Criterion met"
- Compound: "O=C(NCCCCN1CCN(c2cccc(Cl)c2Cl)CC1)Oc1ccccc1"
  Group label: "Criterion met"
- Compound: "O=C(NCCCCN1CCN(c2cccc(Cl)c2Cl)CC1)OC1CCCc2ccccc21 (stereo not given)"
  Group label: "Criterion not met"
- Compound: "Cc1ccccc1N1CCN(CCCNC(=O)Oc2cccc3ccccc23)CC1.Cl"
  Group label: "Criterion not met"

From here, focus on the item given below.
Please let me know if COc1ccccc1N1CCN(CCCNC(=O)Oc2cccc3ccccc23)CC1 shows EC50 below 8 nM.
Criterion not met

###

test system: CHO; experiment: Selectivity ratio of EC50 for human CB1 receptor expressed in CHO cells to EC50 for human dopamine D3 receptor expressed in CHOK1 cells; format: cell-based
We use 30 as the dividing line for Ratio EC50: on or above the line is Condition met, below is Condition not met.

A selection of reference data follows.
- Item smiles: "Cl.NC(=O)c1ccc(OC(=O)NCCCCN2CCN(c3cccc(Cl)c3Cl)CC2)c2ccccc12"
  Group label: "Condition met"
- Item smiles: "Cc1ccccc1N1CCN(CCCCNC(=O)Oc2cccc3ccccc23)CC1.Cl"
  Group label: "Condition not met"
- Item smiles: "Cl.O=C(NCCCCN1CCN(c2cccc(Cl)c2Cl)CC1)Oc1ccc(C(=O)O)c2ccccc12"
  Group label: "Condition met"
- Item smiles: "Cl.O=C(NCCCCN1CCN(c2cccc(Cl)c2Cl)CC1)Oc1cccc2c1OCCO2"
  Group label: "Condition not met"
- Item smiles: "Cc1ccccc1N1CCN(CCCNC(=O)Oc2cccc3ccccc23)CC1.Cl"
  Group label: "Condition not met"
- Item smiles: "O=C(NCCCCN1CCN(c2cccc(Cl)c2Cl)CC1)Oc1cccc2[nH]ccc12"
  Group label: "Condition not met"

Does Ratio EC50 meet or surpass 30 for COc1ccccc1N1CCN(CCCNC(=O)Oc2cccc3ccccc23)CC1 ?
Condition not met

Does Ratio EC50 meet or surpass 30 for Cl.O=C(NCCCCN1CCN(c2cccc(Cl)c2Cl)CC1)Oc1cccc2[nH]cnc12 ?
Condition not met

Does Ratio EC50 meet or surpass 30 for O=C(NCCCCN1CCN(c2cccc(Cl)c2Cl)CC1)Oc1ccccc1 ?
Condition not met
